- SUBJECT_OF_TEST: Proteasome subunit beta type-8 (Homo sapiens)
- Sequence (P28062 whole entry): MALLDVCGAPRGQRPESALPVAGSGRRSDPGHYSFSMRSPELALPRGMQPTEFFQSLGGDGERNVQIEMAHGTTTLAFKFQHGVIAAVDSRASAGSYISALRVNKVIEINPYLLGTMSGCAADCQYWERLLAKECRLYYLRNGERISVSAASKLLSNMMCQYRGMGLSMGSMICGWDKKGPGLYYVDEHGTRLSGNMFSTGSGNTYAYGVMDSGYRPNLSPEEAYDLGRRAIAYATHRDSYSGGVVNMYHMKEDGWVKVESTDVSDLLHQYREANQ
- ASSAY_INFO: Inhibition of immunoproteasome subunit LMP7 in human MM.1S cells assessed as reduction in cell viability incubated for 48 hrs by MTT assay
PROPERTY: IC50 (nM)
Report the figure in nM without appending any unit label.

Lab note: measured IC50 of CC1=C(C(=O)N[C@H](C)C(=O)N[C@@H](Cc2c[nH]c3ccccc23)C(=O)N[C@@H](Cc2ccccc2)C(=O)[C@@]2(C)CO2)Cc2ccccc21 was 3000
